meta.source: ChEMBL document CHEMBL4368909

# Test system: Human immunodeficiency virus 1
# protocol.description: Antiviral activity against wild type HIV1 3B infected in human MT4 cells assessed as reduction in virus-induced cytopathic effect after 5 days by MTT assay
# Format: functional, organism-based
# assay.conditions: Human immunodeficiency virus 1, 3B, MT4, 120 h
measured.endpoint: pEC50
Recall that pEC50 is obtained by taking minus log10 of the concentration measured in molar.

These recorded examples may help you get a feel for the data.
Provide pEC50, system Human immunodeficiency virus 1, entry Cc1cc(C#N)cc(C)c1Oc1nc(NC2CCN(Cc3ccc(NS(C)(=O)=O)cc3)CC2)nc2c1CSC2
7.95

Under Human immunodeficiency virus 1, report pEC50 for Cc1cc(C#N)cc(C)c1Oc1nc(NC2CCN(Cc3ccc(S(C)(=O)=O)cc3)CC2)nc2c1SCCC2
8.41

Report pEC50 on Human immunodeficiency virus 1 for this entry: Cc1cc(C#N)cc(C)c1Oc1nc(NC2CCN(Cc3ccc(S(N)(=O)=O)cc3)CC2)nc2c1CCCC2
8.22

# lookup: Human immunodeficiency virus 1 pEC50, key = Cc1cc(C#N)cc(C)c1Oc1nc(NC2CCN(Cc3cccc(C(N)=O)c3)CC2)nc2c1CCC2
8.70

Identify measured pEC50 obtained with Human immunodeficiency virus 1 for Cc1cc(C#N)cc(C)c1Oc1nc(NC2CCN(Cc3ccc([N+](=O)[O-])cc3)CC2)nc2c1CCC2 .
7.84

For Human immunodeficiency virus 1, give pEC50 of the listed compound: Cc1cc(C#N)cc(C)c1Oc1nc(NC2CCN(Cc3ccc(S(C)(=O)=O)cc3)CC2)nc2c1COC2
8.72

Provide measured pEC50 on Human immunodeficiency virus 1 for Cc1cc(C#N)cc(C)c1Oc1nc(NC2CCN(Cc3ccc(S(N)(=O)=O)cc3)CC2)nc2c1CSC2 please.
7.43

Would you please give the reported pEC50 of Cc1cc(C#N)cc(C)c1Oc1nc(NC2CCN(Cc3ccc(S(C)(=O)=O)cc3)CC2)nc2c1CSC2 with Human immunodeficiency virus 1?
8.42

Provide pEC50, tested on Human immunodeficiency virus 1, for Cc1cc(C#N)cc(C)c1Oc1nc(NC2CCN(Cc3ccc([N+](=O)[O-])cc3)CC2)nc2c1CSC2 .
7.94

Specify pEC50 for Cc1cc(C#N)cc(C)c1Oc1nc(NC2CCN(Cc3ccncc3)CC2)nc2c1COC2 , system Human immunodeficiency virus 1.
8.64

Please find the next compound below.
Look up and report measured pEC50 (Human immunodeficiency virus 1) for the following compound: Cc1cc(C#N)cc(C)c1Oc1nc(NC2CCN(Cc3ccc([N+](=O)[O-])cc3)CC2)nc2c1SCC2
8.10

----------
# tested.system: Human immunodeficiency virus type 1 reverse transcriptase (Human immunodeficiency virus 1, UniProt Q72547)
# protocol.description: Inhibition of recombinant HIV1 reverse transcriptase using (DIG)-dUTP and biotin-labeled dNTPs as substrate after 1 hr by ELISA
pIC50: −log10 of the molar value.
Classification field: y = pIC50 at or over 7; n = pIC50 under 7.

These solved cases illustrate the format of a correct answer.
Hi team, for Cc1cc(C#N)cc(C)c1Oc1nc(NC2CCN(Cc3cccc(C(N)=O)c3)CC2)nc2c1CCC2 , is the recorded pIC50 at or above 7?
n

Kindly determine if pIC50 recorded for Cc1cc(C#N)cc(C)c1Oc1nc(NC2CCN(Cc3ccncc3)CC2)nc2c1COC2 is above or exactly 7.
y

Tell me whether pIC50 is at least 7 here: Cc1cc(C#N)cc(C)c1Oc1nc(NC2CCN(Cc3ccc(S(N)(=O)=O)cc3)CC2)nc2c1CSC2
n

pIC50 >= 7 for Cc1cc(C#N)cc(C)c1Oc1nc(NC2CCN(Cc3ccc([N+](=O)[O-])cc3)CC2)nc2c1CCC2 ?
n

Item Cc1cc(C#N)cc(C)c1Oc1nc(NC2CCN(Cc3ccc(C(N)=O)cc3)CC2)nc2c1CCCC2 with pIC50 of 7 or above?
y

Read the next record carefully.
Is the recorded value of pIC50 equal to or greater than 7 for this compound? Cc1cc(C#N)cc(C)c1Oc1nc(NC2CCN(Cc3ccc([N+](=O)[O-])cc3)CC2)nc2c1SCC2
n

----------
# pEC50 per record follows
# Tested on: Human immunodeficiency virus 1
# protocol.description: Antiviral activity against wild type HIV1 3B infected in human MT4 cells assessed as reduction in virus-induced cytopathic effect after 5 days by MTT assay
# Assay type: functional, organism-based
# assay.conditions: Human immunodeficiency virus 1, 3B, MT4, 120 h
On this scale, pEC50 is minus log10 of a concentration expressed in M (mol/L).

Give the reported pEC50 for this molecule. Cc1cc(C#N)cc(C)c1Oc1nc(NC2CCN(Cc3cccc(C(N)=O)c3)CC2)nc2c1CCCC2
8.19

Provide only the value of recorded pEC50 for Cc1cc(C#N)cc(C)c1Oc1nc(NC2CCN(Cc3ccc(S(C)(=O)=O)cc3)CC2)nc2c1CCCC2
8.10

# context switch: different molecule, same pEC50
Determine from records and report pEC50 for Cc1cc(C#N)cc(C)c1Oc1nc(NC2CCN(Cc3ccncc3)CC2)nc2c1CCCC2
8.07

----------
Attribute: log10(CC50)
# Test system: MT4
# protocol.description: Cytotoxicity against human MT4 cells after 5 days by MTT assay
# Assay type: cell-based
# assay.conditions: mt4, 120 h
In our notation, the value equals log10 of CC50 in µM.

Illustrative cases are given below, each with its answer.
Note log10(CC50) for the compound shown: Cc1cc(C#N)cc(C)c1Oc1nc(NC2CCN(Cc3ccc(S(N)(=O)=O)cc3)CC2)nc2c1CSC2
1.42

State, in one line, measured log10(CC50) of Cc1cc(C#N)cc(C)c1Oc1nc(NC2CCN(Cc3ccncc3)CC2)nc2c1COC2
1.58

Please look at this compound and report its log10(CC50): Cc1cc(C#N)cc(C)c1Oc1nc(NC2CCN(Cc3cccc(C(N)=O)c3)CC2)nc2c1CCC2
2.31

Supply measured log10(CC50) of Cc1cc(C#N)cc(C)c1Oc1nc(NC2CCN(Cc3ccc([N+](=O)[O-])cc3)CC2)nc2c1CSC2 in your reply.
1.43

For the compound Cc1cc(C#N)cc(C)c1Oc1nc(NC2CCN(Cc3ccc([N+](=O)[O-])cc3)CC2)nc2c1CCCC2 , give its measured log10(CC50) value.
1.46

Let me know recorded log10(CC50) for Cc1cc(C#N)cc(C)c1Oc1nc(NC2CCN(Cc3ccc(S(C)(=O)=O)cc3)CC2)nc2c1SCC2 , thanks.
1.08

Read off the recorded log10(CC50) for Cc1cc(C#N)cc(C)c1Oc1nc(NC2CCN(Cc3ccncc3)CC2)nc2c1CCCC2
1.88

Next up:
Given Cc1cc(C#N)cc(C)c1Oc1nc(NC2CCN(Cc3ccc([N+](=O)[O-])cc3)CC2)nc2c1SCC2 , respond with its log10(CC50).
0.79

----------
Consider the following molecules and their measured selectivity ratio readings.
# protocol.description: Selectivity ratio of CC50 for human MT4 cells to EC50 for HIV1 RES056 infected in human MT4 cells
# Type: toxicity, cell-based
# assay.conditions: read-out: Ratio CC50/EC50
The response must contain the number and no unit.

Identify the reported selectivity ratio for the following entry. Cc1cc(C#N)cc(C)c1Oc1nc(NC2CCN(Cc3ccc([N+](=O)[O-])cc3)CC2)nc2c1CCCC2
4

Note selectivity ratio for the molecule shown: Cc1cc(C#N)cc(C)c1Oc1nc(NC2CCN(Cc3ccc([N+](=O)[O-])cc3)CC2)nc2c1SCC2
12

Find the measured selectivity ratio of Cc1cc(C#N)cc(C)c1Oc1nc(NC2CCN(Cc3ccc(S(N)(=O)=O)cc3)CC2)nc2c1SCC2 and report it.
692

Okay, next one:
Supply measured selectivity ratio of Cc1cc(C#N)cc(C)c1Oc1nc(NC2CCN(Cc3ccc(S(N)(=O)=O)cc3)CC2)nc2c1CSC2 in your reply.
36

----------
# tested.system: Human immunodeficiency virus type 1 reverse transcriptase (Human immunodeficiency virus 1)
# protocol.description: Inhibition of recombinant HIV1 reverse transcriptase using (DIG)-dUTP and biotin-labeled dNTPs as substrate after 1 hr by ELISA
measured.endpoint: IC50

Consider the reported IC50 for these compounds:
Please look at this compound and report its IC50: Cc1cc(C#N)cc(C)c1Oc1nc(NC2CCN(Cc3ccc([N+](=O)[O-])cc3)CC2)nc2c1CSC2
129 nM

Quick one: give measured IC50 for Cc1cc(C#N)cc(C)c1Oc1nc(NC2CCN(Cc3ccncc3)CC2)nc2c1SCC2
112 nM

Tell me its IC50 given Cc1cc(C#N)cc(C)c1Oc1nc(NC2CCN(Cc3ccc(S(C)(=O)=O)cc3)CC2)nc2c1CCC2 as the entry.
157 nM

State its IC50 for this compound: Cc1cc(C#N)cc(C)c1Oc1nc(NC2CCN(Cc3ccc(C(N)=O)cc3)CC2)nc2c1CCC2
73 nM

More entries:
Identify the reported IC50 for the following entry. Cc1cc(C#N)cc(C)c1Oc1nc(NC2CCN(Cc3ccc(S(N)(=O)=O)cc3)CC2)nc2c1CCC2
91 nM

Indicate its recorded IC50; the compound in question is Cc1cc(C#N)cc(C)c1Oc1nc(NC2CCN(Cc3ccc(S(C)(=O)=O)cc3)CC2)nc2c1SCC2
130 nM

Retrieve IC50 measured for Cc1cc(C#N)cc(C)c1Oc1nc(NC2CCN(Cc3ccc([N+](=O)[O-])cc3)CC2)nc2c1CCCC2 and print it.
94 nM

Note IC50 for the compound shown: Cc1cc(C#N)cc(C)c1Oc1nc(NC2CCN(Cc3ccc(N)cc3)CC2)nc2c1CSC2
115 nM
